Origin of the recorded values: patent US20260297060A1

test: Example 8 pharmacokinetics assay for PKPD study (plasma, tumor, liver); format: in vivo, BALB/c nude mice; details: mouse, plasma, po, 35 mg/kg, p.o., single dose; 6 h; read-out: Concentration in Plasma (mean ± SEM)
Measured Property: concentration at 6 h (ng/mL)
Numbers only, in ng/mL.

Looking up COC(=O)N[C@@H](C)CNc1nccc(-c2cn(C(C)C)nc2-c2cc(Cl)cc(NS(C)(=O)=O)c2F)n1 [Encorafenib, encorafenib, reference compound] , I found its concentration at 6 h recorded as 585

###

experiment: Pharmacokinetics in female BALB/c nude mice bearing A375 xenografts, 1 day dosing (PK and PD study): plasma, tumor and brain concentrations, AUC; assay type: in vivo; settings: mouse, brain, po, 3 mg/kg, 3 mg/kg p.o. BID × 1 day; post 2nd dose; 1 h; read-out: Mean Concentration in Brain ± SEM
Measured Property: concentration at 1 h (ng/g)
Numbers only, in ng/g.

Looking up CCN(C)S(=O)(=O)Nc1ccc(F)c(Oc2ccc3ncn([C@H]4COC5(CCN(C6CC7(C6)CN(c6cc8c(cc6F)c(N6CCC(=O)NC6=O)nn8C)C7)CC5)C4)c(=O)c3c2)c1C#N , I found its concentration at 1 h recorded as 89.1
